test: inhibitors of DENV2 cytopathic effect, primary screen, cell-based, plate reader, single concentration (AID 651640); conditions: DENV2-infected cells, cytopathic effect rescue, at 9.99 µM, stronger effect = higher value;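 further: 0% = median of neutral control wells and 100% = median of positive control wells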
The campaign covered roughly 350,000 compounds. About 6,000 (1.7%) were called active. Another 5% or so got no clear call; they are omitted. Many of the other results were omitted from the sample, so actives are more common in it than they were.
Quick list: CPE inhibition per entry.
API: value field is a number in %; no unit string.

[
  {
    "COMPOUND": "CCNC(=O)C[C@@H]1CC[C@H]2[C@@H](COc3ccc(NC(=O)NC(C)C)cc3C(=O)N2C)O1",
    "MEAS_VALUE": -7.53
  },
  {
    "COMPOUND": "COc1cc(F)c(C2=CC(=O)CC(C)(C)C2)cc1F",
    "MEAS_VALUE": 26.9
  },
  {
    "COMPOUND": "COc1cccc(-c2ccc3c(c2)O[C@H](CN(C)C(=O)C2CCOCC2)[C@H](C)CN([C@H](C)CO)S3(=O)=O)c1",
    "MEAS_VALUE": -2.8
  }
]

Lab note: next compound to report on.
// query CPE inhibition value for entry `CC(C)NC(=O)N(C)C[C@H]1Oc2cc(-c3cncnc3)ccc2S(=O)(=O)N([C@@H](C)CO)C[C@H]1C`
12.5

Taken from PubChem BioAssay AID651640.
